- Tgt: trypanothione synthetase-amidase (TRYS) (Trypanosoma brucei, UniProt Q586P2)
- Sequence (Q586P2 1-627): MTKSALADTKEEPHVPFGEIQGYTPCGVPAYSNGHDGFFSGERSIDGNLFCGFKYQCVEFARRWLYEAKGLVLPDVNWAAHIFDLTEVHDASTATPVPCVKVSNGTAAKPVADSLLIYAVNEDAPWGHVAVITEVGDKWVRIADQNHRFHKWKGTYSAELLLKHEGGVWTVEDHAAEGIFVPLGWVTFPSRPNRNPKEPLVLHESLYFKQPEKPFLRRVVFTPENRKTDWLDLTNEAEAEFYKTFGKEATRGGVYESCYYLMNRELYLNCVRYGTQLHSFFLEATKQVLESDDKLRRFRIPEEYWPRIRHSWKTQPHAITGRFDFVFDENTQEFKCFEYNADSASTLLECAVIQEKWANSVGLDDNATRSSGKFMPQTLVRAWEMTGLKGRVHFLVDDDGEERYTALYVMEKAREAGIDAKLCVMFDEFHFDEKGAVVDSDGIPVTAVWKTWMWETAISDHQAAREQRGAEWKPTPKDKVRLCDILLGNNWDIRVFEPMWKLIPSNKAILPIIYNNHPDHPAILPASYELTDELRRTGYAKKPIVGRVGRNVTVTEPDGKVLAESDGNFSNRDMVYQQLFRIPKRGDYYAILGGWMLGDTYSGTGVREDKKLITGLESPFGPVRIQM
- Assay Comment: inhibition of recombinant TRYS
Quantity Measured: pIC50
// pIC50 is dimensionless: -log10 of concentration (M)

Given the compound CN(C)CCCNC(=O)Cn1nc(-c2cccc(F)c2)c2ccccc21 , write its reported pIC50. 7.35
